# assayed-system: T1, human a-Mesothelin (Acro Biosystems; MSN_H5223) (human, UniProt Q13421 296-580, limits assumed)
# T1 construct: Bought protein immobilised on the SPR chip; Printed as 'a-Mesothelin' but used as the antigen for the anti-MSLN scFvs; also called Human MSLN; MSLN
# T1 sequence (Q13421 other isoform, or with tags, fused parts or gaps limits assumed): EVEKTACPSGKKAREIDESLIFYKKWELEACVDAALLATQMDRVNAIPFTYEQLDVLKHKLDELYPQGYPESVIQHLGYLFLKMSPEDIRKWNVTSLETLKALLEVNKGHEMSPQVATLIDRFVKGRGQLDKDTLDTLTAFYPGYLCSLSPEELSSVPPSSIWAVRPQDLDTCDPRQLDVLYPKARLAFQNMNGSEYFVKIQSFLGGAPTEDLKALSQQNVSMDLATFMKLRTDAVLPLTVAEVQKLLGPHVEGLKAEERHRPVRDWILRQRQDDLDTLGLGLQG
# assay-notes: SPR, mesothelin immobilised, scFv analyte, 1:1 fit
# Method: The mutation variants were then injected at concentrations of 10 nM, 2 nM and 0.4 nM over the ligand-immobilized and reference spots. The wild type variants were used as a control, while an empty spot was used as reference. After each cycle with analyte, the surface was regenerated with a 3M MgCl₂ solution, thereby allowing the next analyte cycle to have only free ligand available. […]

binder | n-fold to wt [fold]
PRO3322 (scFv 54-21-H03-sc01_(L12R, T101R, L144A, T146Q)) (scFv, PRO1922 variant; VH substitutions, AHo numbering; also called PRO1922 L12R-T101R-L144A-T146Q) scFv: DIQMTQSPSSLSASVGDRVTITCQASESIYSSLAWYQQKPGKAPKLLIYLASTLASGVPSRFSGSGSGTDFTLTISSLQPEDFATYYCQSTDYTTSTHRNSFGTGTKVTVLGGGGGSGGGGSGGGGSGGGGSEVQLVESGGGRVQPGGSLRLSCAASGFSFSTTYYMCWVRQAPGKGLEWIGCTNTASSVRTYYATWAKGRFTISRDNSKNTVYLQMNSLRAEDRAVYYCARDMGFADYALNLWGQGTAVQVSS | 1.2
PRO3325 (scFv 54-21-H03-sc01_(T101S, T146R)) (scFv, PRO1922 variant; VH substitutions, AHo numbering; also called PRO1922 T101S-T146R) scFv: DIQMTQSPSSLSASVGDRVTITCQASESIYSSLAWYQQKPGKAPKLLIYLASTLASGVPSRFSGSGSGTDFTLTISSLQPEDFATYYCQSTDYTTSTHRNSFGTGTKVTVLGGGGGSGGGGSGGGGSGGGGSEVQLVESGGGLVQPGGSLRLSCAASGFSFSTTYYMCWVRQAPGKGLEWIGCTNTASSVRTYYATWAKGRFTISRDNSKNTVYLQMNSLRAEDSAVYYCARDMGFADYALNLWGQGTLVRVSS | 1
